target: Solute carrier family 15 member 2 (Homo sapiens, UniProt Q16348); test: Substrates of transporters of clinical importance in the absorption and disposition of drugs, PEPT2; assay type: ADME
Sequence (Q16348 whole entry): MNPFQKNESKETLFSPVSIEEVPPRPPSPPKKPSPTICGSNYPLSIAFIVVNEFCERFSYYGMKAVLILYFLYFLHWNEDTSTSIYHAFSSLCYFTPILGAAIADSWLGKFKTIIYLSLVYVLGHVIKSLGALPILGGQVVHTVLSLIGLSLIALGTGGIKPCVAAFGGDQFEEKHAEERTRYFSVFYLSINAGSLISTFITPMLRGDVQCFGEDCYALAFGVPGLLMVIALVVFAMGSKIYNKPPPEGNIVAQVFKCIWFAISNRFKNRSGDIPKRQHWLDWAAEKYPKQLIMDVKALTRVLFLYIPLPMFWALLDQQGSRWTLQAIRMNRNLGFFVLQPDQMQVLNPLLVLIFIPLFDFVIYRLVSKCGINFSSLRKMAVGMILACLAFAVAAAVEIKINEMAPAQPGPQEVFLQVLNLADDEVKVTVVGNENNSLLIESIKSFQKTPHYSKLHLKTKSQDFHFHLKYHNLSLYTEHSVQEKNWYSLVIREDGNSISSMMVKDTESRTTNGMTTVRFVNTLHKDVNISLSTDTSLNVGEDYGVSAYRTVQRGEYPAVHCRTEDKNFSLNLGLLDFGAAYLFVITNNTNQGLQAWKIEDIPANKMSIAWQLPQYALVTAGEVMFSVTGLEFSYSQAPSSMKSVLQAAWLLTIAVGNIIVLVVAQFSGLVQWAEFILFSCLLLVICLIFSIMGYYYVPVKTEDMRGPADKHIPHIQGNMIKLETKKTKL
Square brackets hold non-standard residues; d marks the D form. Peptide text beside a SMILES is read from it. Sar = CNCC(=O)O
Metric name: Activity

CC1=C(C(=O)O)N2C(=O)[C@@H](NC(=O)[C@H](N)c3ccc(O)cc3)[C@H]2SC1; transporter substrate
CN(CC(=O)O)C(=O)CN [GLYCYLSARCOSINE] (H-Gly-[Sar]-OH); transporter substrate
CCOC(=O)[C@H](CCc1ccccc1)N[C@@H](C)C(=O)N1CCC[C@H]1C(=O)O; transporter substrate
CC(C)C[C@H](NC(=O)[C@@H](O)[C@H](N)Cc1ccccc1)C(=O)O; transporter substrate
CC1=C(C(=O)O)N2C(=O)[C@@H](NC(=O)[C@H](N)c3ccccc3)[C@H]2SC1 [CEPHALEXIN ANHYDROUS]; transporter substrate
NCC(=O)CCC(=O)O; transporter substrate

Turning now to a further compound:
input: Tell me the measured Activity of "CC(C)[C@H](N)C(=O)OCCOCn1cnc2c(=O)[nH]c(N)nc21" , please.
output: transporter substrate
